# assayed-target: human PD-L1 (human) (UniProt Q9NZQ7)
# Sequence (Q9NZQ7 19-290): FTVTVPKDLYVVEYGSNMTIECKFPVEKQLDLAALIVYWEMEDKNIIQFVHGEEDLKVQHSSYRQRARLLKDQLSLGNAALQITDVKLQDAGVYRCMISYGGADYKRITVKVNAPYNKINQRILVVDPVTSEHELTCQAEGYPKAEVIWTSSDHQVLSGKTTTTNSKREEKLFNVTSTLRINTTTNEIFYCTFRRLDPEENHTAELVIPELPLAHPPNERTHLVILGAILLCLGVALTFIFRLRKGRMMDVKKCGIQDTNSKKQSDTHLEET
# assay-method-text: flow cytometry, CHO cells expressing PD-L1
endpoint: MFI at 33.3 nM (MFI)
Entry rule: numbers only, all in MFI.

Example binders with recorded MFI at 33.3 nM:
binder	quantity-unit	numeric-value
CD80 E35D/M47V/N48K/V68M/A71G/L85M IgV-Fc (Fc fusion) VIHVTKEVKEVATLSCGHNVSVEELAQTRIYWQKDKKMVLTMMSGDVKIWPEYKNRTIFDITNNLSIMILGLRPSDEGTYECVVMKYEKDAFKREHLAEVTLSVKAD	MFI	22800
CD80 E35D/M47L/Y53F/V68M/A71G/K93R/E95V IgV-Fc (Fc fusion) VIHVTKEVKEVATLSCGHNVSVEELAQTRIYWQKDKKMVLTMMSGDLNIWPEFKNRTIFDITNNLSIMILGLRPSDEGTYECVVLKYEKDAFRRVHLAEVTLSVKAD	MFI	25000

// next item, MFI at 33.3 nM requested
QUERY: For the binder CD80 T13R/Q33R/E35D/M47L/V68M IgV-Fc (Fc fusion) VIHVTKEVKEVARLSCGHNVSVEELAQTRIYWRKDKKMVLTMMSGDLNIWPEYKNRTIFDITNNLSIMILALRPSDEGTYECVVLKYEKDAFKREHLAEVTLSVKAD , what MFI at 33.3 nM is on record?
RESULT: 14700
